This collection of values is drawn from ChEMBL document CHEMBL4049404.

Target: Epidermal growth factor receptor (Homo sapiens, UniProt P00533, EX19DEL)
Sequence (P00533 whole entry, looked up, stated change not applied): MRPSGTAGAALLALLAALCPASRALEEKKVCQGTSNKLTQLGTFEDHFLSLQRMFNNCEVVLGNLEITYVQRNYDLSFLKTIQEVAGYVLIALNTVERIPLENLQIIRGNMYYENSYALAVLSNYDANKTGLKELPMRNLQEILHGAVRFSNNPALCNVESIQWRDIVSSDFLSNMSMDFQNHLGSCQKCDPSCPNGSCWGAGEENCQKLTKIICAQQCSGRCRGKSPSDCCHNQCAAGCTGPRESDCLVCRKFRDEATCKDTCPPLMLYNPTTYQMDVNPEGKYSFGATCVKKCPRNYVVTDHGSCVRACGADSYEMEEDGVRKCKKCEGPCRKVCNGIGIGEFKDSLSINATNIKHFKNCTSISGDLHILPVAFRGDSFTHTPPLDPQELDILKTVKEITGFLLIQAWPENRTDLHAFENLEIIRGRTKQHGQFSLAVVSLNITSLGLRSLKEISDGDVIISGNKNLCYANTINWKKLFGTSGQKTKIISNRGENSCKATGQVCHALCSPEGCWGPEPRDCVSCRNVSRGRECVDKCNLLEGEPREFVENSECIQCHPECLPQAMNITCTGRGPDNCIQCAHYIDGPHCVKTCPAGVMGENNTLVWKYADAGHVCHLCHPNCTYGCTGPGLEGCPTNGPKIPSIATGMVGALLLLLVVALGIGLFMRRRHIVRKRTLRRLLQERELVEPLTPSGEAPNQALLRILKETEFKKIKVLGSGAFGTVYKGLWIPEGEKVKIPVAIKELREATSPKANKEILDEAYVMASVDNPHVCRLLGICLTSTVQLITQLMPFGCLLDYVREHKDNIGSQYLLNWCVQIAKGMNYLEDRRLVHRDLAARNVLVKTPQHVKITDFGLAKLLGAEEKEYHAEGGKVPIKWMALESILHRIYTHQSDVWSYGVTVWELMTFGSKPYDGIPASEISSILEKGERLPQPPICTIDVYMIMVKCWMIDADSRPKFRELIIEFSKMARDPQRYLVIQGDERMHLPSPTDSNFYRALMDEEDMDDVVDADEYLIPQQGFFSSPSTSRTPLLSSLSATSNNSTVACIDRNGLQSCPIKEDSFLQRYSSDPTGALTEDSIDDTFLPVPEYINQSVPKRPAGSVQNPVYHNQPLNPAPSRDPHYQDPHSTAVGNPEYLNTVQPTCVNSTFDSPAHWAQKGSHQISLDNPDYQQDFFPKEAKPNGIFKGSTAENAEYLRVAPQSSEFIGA
Experiment: Inhibition of EGFR exon 19 deletion mutant in human HCC827 cells assessed as reduction in ERK phosphorylation at Thr202/Tyr204 measured after 4 hrs by Western blot analysis
Assay type: cell-based
valueKind: EC50

# compound, valueKind, reportedResult
measured = [
    ("C=CC(=O)N1CCC[C@@H](n2nc(-c3ccc(OCc4ccccn4)c(Cl)c3)c3c(N)ncnc32)C1", "EC50", "< 0.01 µM"),
]

----------
Test system: Rattus norvegicus
Assay: AUC (0 to infinity) in Sprague-Dawley rat plasma at 1 mg/kg, iv after 8 hrs
Assay type: ADME, organism-based
Design: dose 1 mg/kg, route intravenous, time infinity
Details: in vivo

# compound, AUC [ng·h/mL]
records = [
    ("C=CC(=O)N1CCC[C@@H](n2nc(-c3ccc(OCc4ccccn4)c(Cl)c3)c3c(N)ncnc32)C1", 405),
]
